test system: Nakaseomyces glabratus; assay: Antimicrobial activity against Candida glabrata at 200 ug/ml after 7 days; assay type: functional; conditions: 168 h
quantity-measured: growth inhibition at 200 µg/mL (%)
Reply numerically in %, unit not repeated.

# lookup: Nakaseomyces glabratus growth inhibition at 200 µg/mL, key = `Cc1cc(NS(=O)(=O)c2ccc(/N=C/c3c[nH]c4ccccc34)cc2)no1`
40

# return growth inhibition at 200 µg/mL for `N=C(N)NS(=O)(=O)c1ccc(/N=C/c2c[nH]c3ccccc23)cc1` , test system: Nakaseomyces glabratus
55

Enter growth inhibition at 200 µg/mL (test system Nakaseomyces glabratus) for `Cc1noc(NS(=O)(=O)c2ccc(/N=C/c3c[nH]c4ccccc34)cc2)c1C`
55

Param request: growth inhibition at 200 µg/mL | system Nakaseomyces glabratus | item `Cc1cc(C)nc(NS(=O)(=O)c2ccc(/N=C/c3c[nH]c4ccccc34)cc2)n1`
28

// fetch growth inhibition at 200 µg/mL; item: `NS(=O)(=O)c1ccc(/N=C/c2c[nH]c3ccccc23)cc1` ; system: Nakaseomyces glabratus
25

Report value: growth inhibition at 200 µg/mL, system: Nakaseomyces glabratus, compound: `O=S(=O)(Nc1ncccn1)c1ccc(/N=C/c2c[nH]c3ccccc23)cc1`
20

Consider the compound `O=S(=O)(Nc1nccs1)c1ccc(/N=C/c2c[nH]c3ccccc23)cc1` tested on Nakaseomyces glabratus; state its growth inhibition at 200 µg/mL.
60

----------
tested on: Shigella flexneri; test: Antimicrobial activity against Shigella flexneri at 1 mg/ml by agar-well diffusion method; format: functional; details: read-out: IZ
quantity-measured: zone of inhibition at 1000 µg/mL

For the compound `O=S(=O)(Nc1nccs1)c1ccc(/N=C/c2c[nH]c3ccccc23)cc1` , report zone of inhibition at 1000 µg/mL.
23 mm

Return value of zone of inhibition at 1000 µg/mL for input `O=S(=O)(Nc1ncccn1)c1ccc(/N=C/c2c[nH]c3ccccc23)cc1` , no commentary.
18 mm

Given the compound C[C@@H](O)[C@H]1C(=O)N2C(C(=O)O)=C(SCCNC=N)C[C@H]12 [IMIPENEM ANHYDROUS] , write its reported zone of inhibition at 1000 µg/mL.
27 mm

Give the reported value of zone of inhibition at 1000 µg/mL for this record: `Cc1noc(NS(=O)(=O)c2ccc(/N=C/c3c[nH]c4ccccc34)cc2)c1C`
19 mm

Give reported zone of inhibition at 1000 µg/mL value for `NS(=O)(=O)c1ccc(/N=C/c2c[nH]c3ccccc23)cc1`
18 mm

----------
system: Pseudomonas aeruginosa; assay: Antimicrobial activity against Pseudomonas aeruginosa at 1 mg/ml by agar-well diffusion method; type: functional; settings: read-out: IZ
Use 20 mm as the dividing line for zone of inhibition at 1000 µg/mL, with the line itself on the met side and lower values as not met.

Reported zone of inhibition at 1000 µg/mL at or above 20 mm? `Cc1noc(NS(=O)(=O)c2ccc(/N=C/c3c[nH]c4ccccc34)cc2)c1C`
not met

In plain terms: is recorded zone of inhibition at 1000 µg/mL at least 20 mm for `Cc1cc(NS(=O)(=O)c2ccc(/N=C/c3c[nH]c4ccccc34)cc2)no1` ?
not met

Textbook exercise: given the entry `N=C(N)NS(=O)(=O)c1ccc(/N=C/c2c[nH]c3ccccc23)cc1` , state whether its zone of inhibition at 1000 µg/mL is greater than or equal to 20 mm.
not met

Is reported zone of inhibition at 1000 µg/mL greater than or equal to 20 mm here: C[C@@H](O)[C@H]1C(=O)N2C(C(=O)O)=C(SCCNC=N)C[C@H]12 [IMIPENEM ANHYDROUS]
met

Is reported zone of inhibition at 1000 µg/mL greater than or equal to 20 mm here: `NS(=O)(=O)c1ccc(/N=C/c2c[nH]c3ccccc23)cc1`
not met

All figures here come from ChEMBL document CHEMBL1154837.
